These measurements were taken from PubChem BioAssay AID1851.

Target: Cytochrome P450 3A4 (Homo sapiens) (UniProt P08684)
Sequence (P08684 whole entry, looked up): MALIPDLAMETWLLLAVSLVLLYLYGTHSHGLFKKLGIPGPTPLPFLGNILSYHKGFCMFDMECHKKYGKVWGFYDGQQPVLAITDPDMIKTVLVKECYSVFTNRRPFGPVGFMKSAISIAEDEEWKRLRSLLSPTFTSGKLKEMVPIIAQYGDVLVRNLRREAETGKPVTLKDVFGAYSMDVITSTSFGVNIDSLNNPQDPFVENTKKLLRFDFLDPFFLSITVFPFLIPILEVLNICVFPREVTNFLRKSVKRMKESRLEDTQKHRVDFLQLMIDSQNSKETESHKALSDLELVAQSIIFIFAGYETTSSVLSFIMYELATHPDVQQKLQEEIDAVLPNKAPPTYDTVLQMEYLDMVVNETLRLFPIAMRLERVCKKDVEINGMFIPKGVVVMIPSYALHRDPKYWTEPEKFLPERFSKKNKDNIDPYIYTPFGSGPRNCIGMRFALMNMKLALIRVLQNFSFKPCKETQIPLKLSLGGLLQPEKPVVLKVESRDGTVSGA
Assay: Cytochrome panel assay with activity outcomes
Settings: recombinant CYP, pro-luciferin dealkylation, luminescence, p450-cyp3a4; series mostly up to 57.1 µM
Among all 16,000 compounds or so, about 5,100 (32%) were called active. Another 25% or so got no clear call; they are omitted. The call rests on the fitted dose curve; in most records, active means well fitted curve in the direction sought with a large enough effect; inconclusive means small, poorly fitted or top-dose-only effect, or effect the other way; inactive means no such curve, though single readings can be large or run the other way. The list shows a part of the results.
Possible outcomes: 1.0 for active, 0.0 for inactive

molecule: NC(N)=Nc1ccc(Cl)cc1
category_label: 0.0
//
molecule: COc1ccc(CONS(=O)(=O)c2ccc(NC(C)=O)cc2)cc1Cl
category_label: 1.0
//
molecule: CC1CCN(C(=O)CSc2nc3cccnc3n2C)CC1
category_label: 0.0
//
molecule: CCCCCOc1ccc(NC(=O)C(=O)NCCC2=CCCCC2)cc1
category_label: 0.0
//
molecule: COC(=O)C(NS(=O)(=O)c1ccc(NC(C)=O)cc1)C(C)C (stereo unspecified)
category_label: 0.0
//
molecule: Cc1ccc(C(=O)N2C3C=CC(C3)C2(C(F)(F)F)C(F)(F)F)cc1 (stereo unspecified)
category_label: 1.0
